GI50 values by entry
# Tested on: SK-MEL-2
# assay_procedure: NCI tumour cell line growth inhibition, 48 h
Calls of active or inactive are those of the source. No stated cut-off is given here; in the data, active = GI50 up to about 1.1 µM and inactive = higher.

Some solved cases for reference:
CC1=NN(C(=O)c2ccc(Cl)cc2)C(=O)/C1=C/c1ccc(Cl)cc1    > 100 µM (inactive)
N#C/C=c1/c2ccccc2n2nc3ccccc3c12    48.6 µM (inactive)
COC(=O)C1Cc2c([nH]c3ccccc23)-c2[nH]c3ccccc3c2CC(NC(C)=O)C(=O)N2CCCC2C(=O)N1 (centres undefined)    > 100 µM (inactive)
C[C@]12Cc3cnc(-c4ccccc4)nc3C[C@@H]1CC[C@@H]1[C@@H]2CC[C@@]2(C)[C@H]1CC[C@]2(C)O    21 µM (inactive)
COC(=O)/C=C(\C)CCC1SC1(C)C (centres undefined)    > 100 µM (inactive)
O=C(Nc1ccccc1C(=O)O)/C(=C/c1ccccc1)NC(=O)c1ccccc1    > 100 µM (inactive)

Read the next record carefully.
Ask: Query GI50 on SK-MEL-2 for CCOCCOc1ccc(OCCOCC)cc1
Reply: > 43 µM (inactive)

----------
# Tested on: TK-10
# assay_procedure: NCI tumour cell line growth inhibition, 48 h
Active and inactive are the calls of the source. Rule as the data show it: active = GI50 up to about 1.1 µM and inactive = higher.
quantity: GI50

Some solved cases for reference:
COC(=O)[C@]12CC[C@H]3CN(C(=O)OCc4ccccc4)[C@H]([C@H]31)[C@H](c1ccco1)N2S(=O)(=O)c1ccc(C)cc1    33.2 µM (inactive)
Nc1cc2[nH]c(=O)c3cc(Cl)ccc3c2cc1Cl    11.8 µM (inactive)
CC(C)(C)OC(=O)N(CCCCNC(=O)C(F)(F)F)CCCNC(=O)C(F)(F)F    > 100 µM (inactive)

Read the next record carefully.
Ask: Query GI50 on TK-10 for N#CC(C#N)=C1C(=O)NC(N)=C1C#N
Reply: > 100 µM (inactive)

----------
GI50 values by entry
# System: KM12
# assay_procedure: NCI tumour cell line growth inhibition, 48 h
The source made the active and inactive calls. Cut-off read from the data, not from the text of the source: active = GI50 up to about 1.1 µM and inactive = higher.

Some solved cases for reference:
COP1(=O)CC2C(Cl)(Cl)C2(C)C1 (stereo unspecified)    > 100 µM (inactive)
CNC(=O)N1CN(c2ccccc2)C2(CCN(CCCC(=O)c3ccc(F)cc3)CC2)C1=O    20.9 µM (inactive)

Ask: State the recorded GI50 for this entry: COC(=O)c1ccccc1NC(=S)NN(C)C
Reply: > 100 µM (inactive)

Ask: State the recorded GI50 for this entry: Cc1ccc(N2C[N+](c3ccccc3)=NC(c3ccccc3)=N2)cc1
Reply: 67.6 µM (inactive)

Ask: State the recorded GI50 for this entry: COCCNC(=O)C1C(=O)N(CCOC)C(=O)/C1=N/N (stereo unspecified)
Reply: > 100 µM (inactive)

Ask: State the recorded GI50 for this entry: C=CC1(CC/C(=C\[N+](=O)[O-])c2ccc(OC)c(OC)c2)OCC(C)(C)CO1
Reply: 15.5 µM (inactive)

Ask: State the recorded GI50 for this entry: COC(=O)[C@H](Cc1c[nH]c2ccccc12)NP(=O)(OCCC#N)OCC1OC(n2cc(C)c(=O)[nH]c2=O)CC1N=[N+]=[N-] (stereo partly specified)
Reply: > 100 µM (inactive)

Ask: State the recorded GI50 for this entry: CCN(CC)CCNC(=O)c1cccc2nc3ccccc3nc12
Reply: 10.3 µM (inactive)
